target: human GLP1R (Homo sapiens, UniProt P43220); construct: expressed in transfected cells; host or cells: CHO cells (ATCC), transient transfection with pCMV-human GLP1R; assay: Human GLP-1 receptor transfected cell assay (MRE/CRE-luciferase reporter gene, agonist activity); format: cell-based; conditions: 6 h; concentration 10 μM; read-out: Activity (agonist), percentage of the activity of the control
Sequence (P43220 24-463): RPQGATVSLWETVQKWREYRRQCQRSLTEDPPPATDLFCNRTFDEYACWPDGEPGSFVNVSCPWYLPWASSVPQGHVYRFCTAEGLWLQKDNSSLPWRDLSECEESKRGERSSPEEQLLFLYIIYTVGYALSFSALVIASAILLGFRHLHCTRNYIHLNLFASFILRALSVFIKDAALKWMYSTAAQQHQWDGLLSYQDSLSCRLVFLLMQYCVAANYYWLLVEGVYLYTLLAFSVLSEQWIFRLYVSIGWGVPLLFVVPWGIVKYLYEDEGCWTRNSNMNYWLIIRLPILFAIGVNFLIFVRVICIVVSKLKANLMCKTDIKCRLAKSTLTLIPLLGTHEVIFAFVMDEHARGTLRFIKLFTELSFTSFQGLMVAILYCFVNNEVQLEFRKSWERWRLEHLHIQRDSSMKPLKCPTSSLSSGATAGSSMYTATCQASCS
Consider the following molecules and their measured activation at 10 µM readings.

These recorded examples may help you get a feel for the data.
Cc1ccc(-c2ccc(C(=O)NC(Cc3ccc(-c4noc(-c5ccc(NC(=O)OC(C)(C)C)cc5)n4)c(F)c3)C(=O)O)o2)cc1 (stereo not drawn) : > 60%
CC(C)c1ccc(NC(=O)NC(Cc2ccc(-c3noc(-c4ccc(NC(=O)OC(C)(C)C)cc4)n3)c(F)c2)C(=O)O)cc1 (stereo not drawn) : 40 to 60%
CC(C)(C)OC(=O)Nc1ccc(-c2nc(-c3ccc(C[C@@H](NC(=O)c4cccc(-c5ccc(Cl)cc5)c4)C(=O)O)cc3F)no2)cc1 : > 60%

Ask | Form field - read-out: activation at 10 µM; system: human GLP1R (Homo sapiens, UniProt P43220); submitted item: Cc1cc(-c2ccc(C(=O)NC(Cc3ccc(-c4noc(-c5ccc(NC(=O)OC(C)(C)C)cc5)n4)c(F)c3)C(=O)O)o2)ccc1F (stereo not drawn)
Reply | > 60%

Ask | Give human GLP1R (Homo sapiens, UniProt P43220) activation at 10 µM for Cc1ccc(S(=O)(=O)N2Cc3cc(OC(=O)c4ccc(NC(=O)OC(C)(C)C)cc4)ccc3CC2C(=O)O)cc1F (stereo not drawn)
Reply | > 60%

Ask | Recall the recorded activation at 10 µM for CC(C)(C)OC(=O)Nc1ccc(-c2nc(-c3ccc(CC(NC(=O)c4cnn(-c5ccc(F)cc5)c4)C(=O)O)cc3F)no2)cc1 (stereo not drawn) with human GLP1R (Homo sapiens, UniProt P43220) and state it.
Reply | > 60%
